Target: Coagulation factor XI (Homo sapiens)
Assay: Inhibition of human factor-11a catalytic domain-mediated S-2366 hydrolysis preincubated for 10 mins followed by substrate addition by spectrophotometric analysis
Measurement Kind: IC50 (µM)
One number for each entry, in µM.

Entry under test: CCOC(=O)c1c(C)oc2cc(OC)c(OCc3oc4cc(OC)c(OCc5oc6cc(OCC)c(OS(=O)(=O)O)cc6c5C(=O)OCC)cc4c3C(=O)OCC)cc12 . Its IC50 was 49

* * *

Molecular target: UniProtKB P03951
Assay: Inhibition of full-length human factor-11a-mediated S-2366 hydrolysis preincubated for 10 mins followed by substrate addition by spectrophotometric analysis
Measurement Kind: IC50 (µM)
Give bare numbers, in µM.

Record excerpt, results attached:
>>> readout_number("CCOC(=O)c1c(C)oc2cc(OC)c(OCc3oc4cc(OC)c(OCc5oc6cc(OC)c(OS(=O)(=O)O)cc6c5C(=O)OCC)cc4c3C(=O)OCC)cc12")
6.4
>>> readout_number("CCOC(=O)c1c(COc2cc3c(C(=O)OCC)c(COc4cc5c(C(=O)O)c(C)oc5cc4OC)oc3cc2OC)oc2cc(OC)c(O)cc12")
384
>>> readout_number("O=C(Nc1ccc(OS(=O)(=O)O)cc1)c1cccc(N2C(=O)c3ccc(C(=O)Nc4ccc(OS(=O)(=O)O)cc4)cc3C2=O)c1")
122

# batch size: 3; output IC50 per entry
1. CCOC(=O)c1c(C)oc2cc(OC)c(OCc3oc4cc(OC)c(OCc5oc6cc(OC)c(OCc7oc8cc(OC)c(OS(=O)(=O)O)cc8c7C(=O)OCC)cc6c5C(=O)OCC)cc4c3C(=O)OCC)cc12
2. CCOC(=O)c1c(C)oc2cc(OC)c(OCc3oc4cc(OC)c(OCc5oc6cc(OC)c(OS(=O)(=O)O)cc6c5C(=O)OC)cc4c3C(=O)OCC)cc12
3. CCOC(=O)c1c(C)oc2cc(OC)c(OCc3oc4cc(OCC)c(OS(=O)(=O)O)cc4c3C(=O)OCC)cc12

Response given:
[99, 14.9, 7.5]

* * *

Target: Coagulation factor XI (Homo sapiens, UniProt P03951)
Sequence (P03951 19-387 limits assumed): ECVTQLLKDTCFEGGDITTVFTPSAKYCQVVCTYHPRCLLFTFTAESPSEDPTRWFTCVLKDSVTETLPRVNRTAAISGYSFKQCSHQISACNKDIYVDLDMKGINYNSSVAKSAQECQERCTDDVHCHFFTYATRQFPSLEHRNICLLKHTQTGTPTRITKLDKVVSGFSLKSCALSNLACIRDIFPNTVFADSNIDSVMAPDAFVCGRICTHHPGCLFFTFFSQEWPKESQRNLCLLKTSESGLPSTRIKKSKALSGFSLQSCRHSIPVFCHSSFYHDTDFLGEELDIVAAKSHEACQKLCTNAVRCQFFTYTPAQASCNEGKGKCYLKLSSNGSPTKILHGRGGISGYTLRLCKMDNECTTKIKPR
Sequence (P03951 388-625 limits assumed): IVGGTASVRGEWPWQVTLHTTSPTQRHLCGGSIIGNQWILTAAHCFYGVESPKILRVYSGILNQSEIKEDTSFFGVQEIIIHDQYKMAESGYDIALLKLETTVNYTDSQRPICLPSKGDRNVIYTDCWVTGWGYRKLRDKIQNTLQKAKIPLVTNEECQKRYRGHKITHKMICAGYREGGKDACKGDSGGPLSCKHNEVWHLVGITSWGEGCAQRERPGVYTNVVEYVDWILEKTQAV
Test: Inhibition of full-length human factor-11a-mediated S-2366 hydrolysis preincubated for 10 mins followed by substrate addition by spectrophotometric analysis
Answer each item with its documented log10 of IC50.
Form field - Quantity: IC50; Unit: µM; Scale: log10

Record excerpt, results attached:
>>> readout_number("N#Cc1c(SCC(=O)c2cccc(OS(=O)(=O)O)c2OS(=O)(=O)O)nc([N+](=O)[O-])c(C#N)c1-c1ccc(Oc2ccccc2)cc1")
2.04
>>> readout_number("COC(=O)c1c(C)oc2cc(OC)c(OCc3oc4cc(OC)c(OS(=O)(=O)O)cc4c3C(=O)OC)cc12")
0.99
>>> readout_number("CCOC(=O)c1c(C)oc2cc(OC)c(OCc3oc4cc(OC)c(OCc5oc6cc(OCC)c(OS(=O)(=O)O)cc6c5C(=O)OCC)cc4c3C(=O)OCC)cc12")
-0.09

# batch size: 3; output log10 of IC50 per entry
1. C=CCOC(=O)c1c(C)oc2cc(OC)c(OCc3oc4cc(OC)c(OCc5oc6cc(OC)c(OS(=O)(=O)O)cc6c5C(=O)OCC)cc4c3C(=O)OCC)cc12
2. CCOC(=O)c1c(COc2cc3c(C(=O)O)c(C)oc3cc2OC)oc2cc(OC)c(OCc3oc4cc(OC)c(OS(=O)(=O)O)cc4c3C(=O)OCC)cc12
3. CCOC(=O)c1c(C)oc2cc(OC)c(OCc3oc4cc(OC)c(OCc5oc6cc(OC(C)C)c(OS(=O)(=O)O)cc6c5C(=O)OCC)cc4c3C(=O)OCC)cc12

Response given:
1: 1.48; 2: 1.48; 3: 1.67
